Tested on: Plasmodium berghei
Assay: Antiparasitic activity against Plasmodium berghei ANKA infected BALB/c mice (Mus musculus) after 18 hrs as reduced hemoglobin proteolysis
Assay type: functional
Listing of recorded inhibition (INH) by entry.
The answer is to be given in %; state only the numeric part.

For orientation, consider the following solved cases.
compound	inhibition (INH) / %
CCOC(=O)c1sc2c(c1N)S(=O)(=O)c1cc(Cl)ccc1N2c1ccc(OC)cc1	0
CCOC(=O)c1sc2c(c1N)S(=O)(=O)c1ccc(Cl)cc1N2c1cccc(Cl)c1	0
CCOC(=O)c1sc2c(c1N)S(=O)(=O)c1ccc(Cl)cc1N2c1ccc(OC)cc1	37.01
CC(C)CC(=O)N[C@H](C(=O)N[C@H](C(=O)N[C@@H](CC(C)C)[C@@H](O)CC(=O)N[C@@H](C)C(=O)N[C@@H](CC(C)C)[C@@H](O)CC(=O)O)C(C)C)C(C)C [PEPSTATIN]	92.94

Query :: I'd like to know its inhibition (INH). The compound in question is `CCOC(=O)c1sc2c(c1N)S(=O)(=O)c1cc(Cl)ccc1N2c1cccc(OC)c1`
Result :: 0

Query :: Same lookup for `CCOC(=O)c1sc2c(c1N)S(=O)(=O)c1cc(Cl)ccc1N2c1ccccc1C` , please.
Result :: 0

Query :: Lookup `CCOC(=O)c1sc2c(c1N)S(=O)(=O)c1ccc(Cl)cc1N2c1ccccc1`
Result :: 78.17
